Experiment: qHTS Assay for NPC1 Promoter Activators; further: nearly all actives have a fitted effect of over 60% in size;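 on activation: reporter is driven by a mutant NPC1 promoter; % of control where 0% means no effect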
Conditions: Huh7 NPC1 promoter luciferase reporter, 24 h; series mostly up to 9.22 µM
Among all 320,000 compounds or so, about 7,600 (2.4%) were called active. Inconclusive results (about 3%) are left out. The call rests on the fitted dose curve; in most records, active means well fitted activation curve with a large enough effect; inconclusive means small, poorly fitted or top-dose-only effect; inactive means no such curve, though single readings can be large or run the other way. For the sample, actives were picked, then their nearest neighbours and some compounds at random.
Assign a class; possible classes are active, inactive

[ask] For this compound, state the assay outcome: CCN(CC(=O)Nc1ccc(OC)cc1)C(=O)CSCc1ccc(C)cc1
[reply] inactive

[ask] What do we get for CSc1ccc(C#N)cc1NC(=O)c1cccc(Cl)c1 ?
[reply] inactive

[ask] // next record CNS(=O)(=O)c1cccc(C(=O)OCCCC(=O)c2ccccc2)c1
[reply] inactive

[ask] Param item: c1ccc2cc(CCCc3cc4ccccc4cn3)ncc2c1
[reply] inactive

[ask] Now this one: COc1ccccc1CC(=O)Nc1ccc(F)cc1F
[reply] inactive

[ask] Lookup COc1ccc(C2Nc3ccccc3C(=O)N2Cc2ccccc2)cc1Cn1nnc2ccccc21 (stereo unspecified)
[reply] inactive

Further cases:
[ask] Tell me the recorded outcome of this test for COc1ccccc1CC(=O)Nc1ccc([N+](=O)[O-])cc1OC .
[reply] inactive

[ask] What do you get for N#Cc1cccc(NC(=O)C2CCCN(C(=O)c3ccc(Cl)cc3)C2)c1 (stereo unspecified) ?
[reply] inactive

[ask] Same question, Cc1ccc2cc3cc(C(=O)N4CCCCCC4)oc3nc2c1 this time
[reply] active

[ask] Then this compound: O=[N+]([O-])c1ccc2oc(-c3cccc(O)c3)nc2c1
[reply] inactive

[ask] Quick one: Cc1csc2nc(COC(=O)c3cccc(N(C)C)c3)cc(=O)n12
[reply] active

* * *

Experiment: qHTS Assay for NPC1 Promoter Activators; further: nearly all actives have a fitted effect of over 60% in size;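 on activation: reporter is driven by a mutant NPC1 promoter; % of control where 0% means no effect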
Conditions: Huh7 NPC1 promoter luciferase reporter, 24 h; series mostly up to 9.22 µM
The campaign covered roughly 320,000 compounds. About 7,600 (2.4%) were called active. Not shown: some 3% with an inconclusive outcome. Calls come from the whole dose curve; as a rule, active = well fitted activation curve with a large enough effect; inconclusive = small, poorly fitted or top-dose-only effect; inactive = no such curve, though single readings can be large or run the other way. What follows is part of a selection rich in actives, with near analogues and random picks from the rest.
Give one outcome, nothing more. List: true (1) for active, false (0) for inactive

[ask] Hello, I am checking results. What call was entered for O=C(Nc1ccccc1)c1cc2ccccc2[nH]1 ?
[reply] true (1)

[ask] What would you report for O=C(COc1ccc2oc3c(c2c1)CCCC3)Nc1ccccn1 ?
[reply] true (1)

[ask] Entry to check: O=C(NCCc1ccc(C(F)(F)F)cc1)c1ccc2c(c1)OCO2
[reply] false (0)

[ask] What do you get for COc1ccc(CNC(=O)c2cc(=O)c3c(C)cc(C)cc3o2)cc1 ?
[reply] false (0)

# ---- query compound ----
[ask] Recorded test call requested for O=C(COC(=O)c1cc(S(=O)(=O)N2CCOCC2)ccc1Cl)NCCc1ccccc1
[reply] false (0)

* * *

Assay: qHTS Assay for NPC1 Promoter Activators; further: nearly all actives have a fitted effect of over 60% in size;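 on activation: reporter is driven by a mutant NPC1 promoter; % of control where 0% means no effect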
Details: Huh7 NPC1 promoter luciferase reporter, 24 h; series mostly up to 9.22 µM
About 7,600 (2.4%) of roughly 320,000 compounds were called active. About 3% were inconclusive and are not listed. Calls follow the shape of the dose curve; as a rule, active = well fitted activation curve with a large enough effect; inconclusive = small, poorly fitted or top-dose-only effect; inactive = no such curve, though single readings can be large or run the other way. For the sample, actives were picked, then their nearest neighbours and some compounds at random.
Allowed answers: active, inactive

[ask] Given O=C(COC(=O)CNC(=O)C1CCCCC1)Nc1cccc(F)c1 , state the outcome it received in this test.
[reply] inactive

[ask] Same lookup for O=C(NCC#CCSc1nnc(-c2cccc3ccccc23)o1)c1cccs1 , please.
[reply] inactive

[ask] What about this molecule? COc1ccccc1CNC(=O)CCCN1C(=O)NC2(CCCC2)C1=O
[reply] inactive

Continuing:
[ask] Short answer needed: outcome of this test for C[C@H](NC(=O)c1[nH]cnc1C(=O)Nc1nccs1)c1ccccc1 ?
[reply] inactive

[ask] Record: COCCNC(=O)c1ccc2nc(Cc3ccc(OC)c(OC)c3)oc2c1
[reply] inactive

[ask] Same for CCOc1ccc2nc(N(CCN(C)C)C(=O)c3ccc4ccccc4c3)sc2c1
[reply] inactive

[ask] Query Nc1nc(SCC(=O)Nc2ccc(Cl)c([N+](=O)[O-])c2)n[nH]1 next
[reply] inactive
